- System: THP-1 macrophages
- Method summary: Effect of compounds on host cell viability (MTT)
- Assay type: cell-based
- Protocol conditions: read-out: 24h LC50; THP1 macrophages, 24-hour incubation, MTT assay (Supplemental Table 2)
Recorded log10 CC50, one value per entry.
Use the decimal logarithm of CC50 (µM).

[[record]]
compound = "Nc1ccc(-n2cc(C(F)(F)F)nc2-c2ccc(-c3ccccc3)cc2)cc1"
tested_on = "THP-1 macrophages"
reading = 0.18

[[record]]
compound = "C#Cc1ccc(-c2cc(C(F)(F)F)nn2-c2ccc(N3CCNCC3)cc2)cc1"
tested_on = "THP-1 macrophages"
reading = -0.30

[[record]]
compound = "NCC(=O)Nc1ccc(-n2cc(C(F)(F)F)nc2-c2ccc(C(F)(F)F)cc2)cc1"
tested_on = "THP-1 macrophages"
reading = 1.55

[[record]]
compound = "FC(F)(F)c1ccc(-c2ccc(-c3cc(C(F)(F)F)nn3-c3ccc(NC4CCN(C5CCCCC5)C4)cc3)cc2)cc1 (centres unmarked)"
tested_on = "THP-1 macrophages"
reading = 0.41

[[record]]
compound = "NC1CCN(C(=O)c2ccc(-n3cc(C(F)(F)F)nc3-c3ccc(-c4ccc(C(F)(F)F)cc4)cc3)c(F)c2)C1 (centres unmarked)"
tested_on = "THP-1 macrophages"
reading = 0.97

[[record]]
compound = "Oc1ccc(CN2CCC(Nc3ccc(-n4nc(C(F)(F)F)cc4C4CCCCC4)cc3)CC2)cc1"
tested_on = "THP-1 macrophages"
reading = 1.41


Which log10 CC50 reading was recorded for the compound FC(F)(F)c1cc(-c2ccc(-c3cccs3)cc2)n(-c2ccc(N3CCNCC3)cc2)n1 ?
1.01

Name the recorded log10 CC50 for FC(F)(F)c1ccc(-c2cc(C(F)(F)F)nn2CCNC2CCN(Cc3ccccc3)C2)cc1 (centres unmarked) .
1.45

Can you look up the measured log10 CC50 of FC(F)(F)c1ccc(-c2ccc(-c3cc(C(F)(F)F)nn3-c3ccc(NC4CCNCC4)cc3)cc2)cc1 for me?
0.60

Which log10 CC50 is listed for CC(C)C#Cc1ccc(-c2cc(C(F)(F)F)nn2-c2ccc(N3CCC(NCc4ccccc4)C3)cc2)cc1 (centres unmarked) ?
1.47

Recorded log10 CC50 for FC(F)(F)c1cc(-c2ccc(-c3ccsc3)cc2)n(-c2ccc(N3CCNCC3)cc2)n1 , please?
1.02

Given the entry FC(F)(F)c1cc(C2CCCCC2)n(-c2ccc(N3CCC(NCc4ccccc4)CC3)cc2)n1 , report its measured log10 CC50.
1.20

If you can, please state the reported log10 CC50 value of FC(F)(F)c1cc(C2CCCCC2)n(-c2ccc(NC3CCNCC3)cc2)n1 .
1.26

----------
This listing pairs compounds with measured CC50.
- Tested on: THP-1 macrophages
- Method summary: Effect of compounds on host cell viability (MTT)
- Format: cell-based
- Protocol conditions: read-out: 24h LC50; THP1 macrophages, 24-hour incubation, MTT assay (Supplemental Table 2)

Consider the reported CC50 for these compounds:
[[record]]
compound = "CC(C)(C)OC(=O)N1CCC(Nc2ccc(-n3nc(C(F)(F)F)cc3C3CC3)cc2)C1 (centres unmarked)"
reading = "> 50 µM"

[[record]]
compound = "CC(C)(C)c1cc(C(F)(F)F)nn1-c1ccc(N2CCC(N)C2)cc1 (centres unmarked)"
reading = "11.8 µM"

[[record]]
compound = "FC(F)(F)c1cc(C2CCCCC2)n(-c2ccc(Br)cc2)n1"
reading = "> 50 µM"

[[record]]
compound = "FC(F)(F)c1cc(C2CCCCC2)n(-c2ccc(N3CCC(OCc4ccccc4)CC3)cc2)n1"
reading = "> 50 µM"

[[record]]
compound = "CC(=O)NCCNC1CCN(c2ccc(-n3nc(C(F)(F)F)cc3C3CCCCC3)cc2)CC1"
reading = "21.6 µM"


Item under review: CC(=O)NCCCN1CCC(Oc2ccc(-n3nc(C(F)(F)F)cc3C3CCCCC3)cc2)CC1 . Reported CC50?
11.4 µM

# get_value(readout='CC50', item= CC(C)(C)OC(=O)NC1CN(c2ccc(-n3nc(C(F)(F)F)cc3-c3ccc(-c4ccc(C(F)(F)F)cc4)cc3)cc2)C1 )
> 50 µM

# get_value(readout='CC50', item= FC(F)(F)c1ccc(-c2nc(C(F)(F)F)cn2-c2ccc(NC3CCNC3)cc2)cc1 (centres unmarked) )
12.9 µM

----------
# CC50 values compiled below
- System: THP-1 macrophages
- Method summary: Effect of compounds on host cell viability (MTT)
- Format: cell-based
- Protocol conditions: read-out: 24h LC50; THP1 macrophages, 24-hour incubation, MTT assay (Supplemental Table 2)
- Method: The cells were cultured at 37C, 5% CO2 in RPMI medium (ATCC) supplemented with 10% FBS, 1% Penicillin/Streptomycin and 0.05 mM of β-mercaptoethanol. Cells were used in experiments up to passage 10. Effect of the compounds on THP-1 cell viability measured using thiazolyl blue tetrazolium bromide which measures cell metabolic activity (MTT). THP-1 cells were seeded in a 96 well plate (25,000 cells/well) overnight then differentiated with 150 nM phorbol 12-myristate 13-acetate (PMA) over 72 hours. […]
Give just the numeric value; µM need not be written.

Here are 2 compounds together with their reported answers.
[[record]]
compound = "CN(C)c1ccc(-c2cc(C(F)(F)F)nn2-c2ccc(N3CCC(N)C3)cc2)cc1 (stereo not shown)"
quantity_name = "CC50"
reading = 10.8

[[record]]
compound = "N#Cc1ccc(CN2CC(Nc3ccc(-n4nc(C(F)(F)F)cc4C4CCCCC4)cc3)C2)cc1"
quantity_name = "CC50"
reading = 27.6


Consider the compound shown here: NC1CCN(c2ccc(-n3nc(C(F)(F)F)cc3-c3ccc(-c4ccc(C(F)(F)F)cc4)cc3)cc2)CC1 What is its recorded CC50?
4.8

Reported CC50 for CC(C)(C)OC(=O)NC1CCN(c2ccc(-n3nc(C4CCCCC4)cc3C(F)(F)F)cc2)C1 (stereo not shown) : what is it?
5

// returns reported CC50 for input CC(=O)c1ccc(-c2ccc(C(F)(F)F)cc2)cc1
13.3

----------
- Test system: THP-1 macrophages
- Method summary: Effect of compounds on host cell viability (MTT)
- Format: cell-based
- Protocol conditions: read-out: 24h LC50; THP1 macrophages, 24-hour incubation, MTT assay (Supplemental Table 2)
The molecules listed here are annotated with their CC50.

[[record]]
molecule = "CS(=O)(=O)c1ccc(-n2nc(C(F)(F)F)cc2-c2ccc(-c3ccccc3)cc2)cc1 [Compound 174]"
reading = "> 50 µM"

[[record]]
molecule = "FC(F)(F)c1ccc(-c2ccc(-c3cc(C(F)(F)F)nn3-c3ccc(N4CCC(NCc5ccccc5)CC4)cc3)cc2)cc1 [Compound 89]"
reading = "8 µM"

[[record]]
molecule = "FC(F)(F)c1ccc(-c2ccc(-c3cc(C(F)(F)F)nn3-c3ccc(OC4CCNCC4)cc3)cc2)cc1 [Compound 34]"
reading = "> 50 µM"


We now examine a further molecule.
Form: Entry = Cc1cc(C(F)(F)F)n(-c2ccc(NC3CCN(C(=O)OC(C)(C)C)C3)cc2)n1 (stereo not shown) [Compound 282] | System = THP-1 macrophages | CC50 = ____
> 50 µM

----------
- Tested on: THP-1 macrophages
- Method summary: Effect of compounds on host cell viability (MTT)
- Assay type: cell-based
- Protocol conditions: read-out: 24 hr viability of THP-1 macrophages 24h LC50; THP-1 macrophages, 24-hour incubation, MTT assay
Quantity name: CC50 (µM)
Please state the figure in µM; there is no need to write the unit.

Sample records with CC50:
[[record]]
compound = "CC(C)(C)C#Cc1ccc(-c2cc(C(F)(F)F)nn2-c2ccc(N3CCNCC3)cc2)cc1.Cl"
reading = 7.4

[[record]]
compound = "N[C@@H]1CCN(c2ccc(-n3nc(C(F)(F)F)cc3-c3ccc(-c4ccc(C(F)(F)F)cc4)cc3)cc2)C1"
reading = 6.3

[[record]]
compound = "N[C@H]1CCN(c2ccc(-n3nc(C(F)(F)F)cc3-c3ccc(-c4ccc(C(F)(F)F)cc4)cc3)cc2)C1"
reading = 4.2


In the following, a different compound is considered.
// returns reported CC50 for input Nc1ccc(CNC2CCN(c3ccc(-n4nc(C(F)(F)F)cc4-c4ccc(-c5ccc(C(F)(F)F)cc5)cc4)cc3)C2)cc1 (stereo not shown)
5.8

----------
- Test system: THP-1 macrophages
- Method summary: Effect of compounds on host cell viability (MTT)
- Format: cell-based
- Protocol conditions: read-out: 24h LC50; THP1 macrophages, 24-hour incubation, MTT assay (Supplemental Table 2)
Quantity name: CC50

Observe how each entry below is paired with its result.
[[record]]
compound = "CC(C)(C)OC(=O)N1CCC(Oc2ccc(-n3nc(C(F)(F)F)cc3-c3ccc(-c4ccc(C(F)(F)F)cc4)cc3)cc2)CC1"
quantity_name = "CC50"
reading = "> 50 µM"

[[record]]
compound = "O=C(Nc1ccc(-n2cc(C(F)(F)F)nc2-c2ccc(-c3ccccc3)cc2)cc1)C1CCCN1Cc1ccccc1 (centres unmarked)"
quantity_name = "CC50"
reading = "> 50 µM"

[[record]]
compound = "CC(C)(C)c1cc(C(F)(F)F)nn1-c1ccc(Br)cc1"
quantity_name = "CC50"
reading = "> 50 µM"

[[record]]
compound = "FC(F)(F)c1ccc(-c2cc(C(F)(F)F)nn2-c2ccc(NC3CCNC3)cc2)cc1 (centres unmarked)"
quantity_name = "CC50"
reading = "14.4 µM"

[[record]]
compound = "CC(C)C#Cc1ccc(-c2cc(C(F)(F)F)nn2-c2ccc(N3CCNCC3)cc2)cc1"
quantity_name = "CC50"
reading = "3.2 µM"


CC50 lookup needed for Nc1ccc(-n2nc(C(F)(F)F)cc2-c2ccc(Br)cc2)cc1 , thanks.
> 50 µM

Quick one: CC50 for FC(F)(F)c1ccc(-c2ccc3ncn(-c4ccc(Br)cc4)c3c2)cc1 ?
> 50 µM

Given the entry Fc1cccc(CN2CCC(Nc3ccc(-n4nc(C(F)(F)F)cc4C4CCCCC4)cc3)CC2)c1 , report its measured CC50.
> 50 µM
